assay: Human HepG2 cell viability assay in 384 well format; format: toxicity, cell-based; design: dose 125 nL, time 70.5 hour; concentration not given beside the values; details: HepG2 cells, read-out: Inhibition
Exercise: for every item that follows, state its recorded cytotoxicity at 70.5 h.
Reply with just the number (in %).

input: Any idea what cytotoxicity at 70.5 h was measured for CC1c2ncc(COc3cccnc3)n2CCN1C(=O)C1=CCCCC1 (stereo unspecified) ?
output: -14.2

input: Entry to check: Cc1cc(C)n(CC2CN(Cc3ccc(C(N)=O)cc3)CCO2)n1 (stereo unspecified)
output: -4.76

input: Also COc1ccc(Cl)cc1NC(=O)N(C)CC(O)COCCOC(C)C (stereo unspecified) , if possible.
output: -4.88

input: Now try COc1c(C(=O)N2CCC(CSc3ccccc3)C2)c(C)nn1C (stereo unspecified) .
output: 1.84

input: Follow-up item: COc1c(C)cnc(CSc2nnc(N3CCCC3)s2)c1C
output: 8.14

input: Lookup CCc1ccc(CN2CC[C@H]3C[C@H](c4nnc(C)[nH]4)O[C@@H]3C2)o1
output: -1.93

input: Okay, and CN1C(=O)CC(c2ccccc2)C12CCN(c1ncc(F)cn1)CC2 (stereo unspecified) ?
output: -1.24

input: Ok, now Cc1c[nH]nc1C1CCN(C(=O)C2CCCC2)C1 (stereo unspecified)
output: -5.07

input: Same thing, different molecule: Cc1ccc(NC2CCN(C(=O)c3ccc(Cl)cc3F)CC2)nn1
output: 23.4

input: Try Cc1ccc(C(=O)N2CCC(=O)N(CC3CC3)C(C(C)C)C2)c(=O)[nH]1 (stereo unspecified) next.
output: 4.74

input: Queued: CCN(CC)S(=O)(=O)c1cc2c3c(c1)c(C)cc(=O)n3CC2
output: 3.57

====

assay: Human HepG2 cell viability assay in 384 well format; assay type: toxicity, cell-based; design: dose 125 nL, time 70.5 hour; concentration not given beside the values; conditions: HepG2 cells, read-out: Inhibition
PARAMETER: cytotoxicity at 70.5 h (%)
The reply should contain only the number, in %.

input: So what does the record say about cytotoxicity at 70.5 h for Cc1ncc(CN2CCC(CNS(=O)(=O)C3CC3)C2)cn1 (stereo unspecified) ?
output: 13.4

input: What do you get for CCc1cnc(N2CC3(CCN(Cc4ccsc4)C3)C2)nc1 ?
output: 18.4

input: Next entry: COc1cccc(-c2ncc3c(n2)N(C)CCN(CCN(C)C)C3=O)c1
output: -6.84

input: Cc1cnn(C2CCCN(C(=O)c3ccc(N4CCCC4)nc3)C2)c1 (stereo unspecified) ?
output: -7.94

input: And for CCc1ccc(CN(CCN(C)C)Cc2ccc(C)s2)nc1 ?
output: -5.3

input: Try Cc1nnc(C(C)NCC2(c3ccc(F)cc3)CCCCC2)o1 (stereo unspecified) next.
output: -5.27

====

assay: Human HepG2 cell viability assay in 384 well format; assay type: toxicity, cell-based; design: dose 125 nL, time 70.5 hour; concentration not given beside the values; details: HepG2 cells, read-out: Inhibition
Please respond with reported cytotoxicity at 70.5 h for every item in the list.
Report only the number, with the unit % understood.

input: Request the reported cytotoxicity at 70.5 h associated with COCCN1C[C@@H](C)[C@@]2(COCCN(C(=O)c3cccc(C)n3)C2)C1
output: 0.709

input: Now this one: O=C(NCc1cccs1)C1CNCC12CCOCC2 (stereo unspecified)
output: 0.759

input: Now this one: Cc1nc(C)n(CC2CCCN(c3ncnc4ccccc34)C2)n1 (stereo unspecified)
output: -6.84

input: Now this one: Cc1c(C(=O)N2CCC(N3CCCCC3)CC2)n(C)c2ccc(Cl)cc12
output: -0.949

input: Next molecule up: O=C(C1CCOCC1)N1CCOC(CC2CCCCC2)C1 (stereo unspecified)
output: -8.55

input: Similarly, Cc1ccc(C(=O)N2CCC3(CC2)COC(COc2cccnc2)C3)o1 (stereo unspecified) ?
output: -7.65

Where do these numbers come from? They come from ChEMBL document CHEMBL3507680.
